Source of measurements: PubChem BioAssay AID1963973

Each record here notes measured viability, T/C.
- System: 883617-216-R-J1-PDC tumor spheroids, viability
- Run description: Anticancer human tumor 883617-216-R-J1-PDC patient-derived bladder carcinoma cell line growth inhibition [PI3K]
- Experimental parameters: second compound 0.0316 µM; first compound 0.0949 µM; hits give low values; spheroids with HUVEC and MSC
Field: numeric (%). Do not append units.

Take a look at these entries with their results.
Cn1cnc2c(F)c(Nc3ccc(Br)cc3Cl)c(C(=O)NOCCO)cc21 + CC(Nc1ncnc2nc[nH]c12)c1cc2cccc(Cl)c2c(=O)n1-c1ccccc1
39.5
Cn1cnc2c(F)c(Nc3ccc(Br)cc3Cl)c(C(=O)NOCCO)cc21 + Cc1nc(NC(=O)N2CCCC2C(N)=O)sc1-c1ccnc(C(C)(C)C(F)(F)F)c1
41.5
Cn1cnc2c(F)c(Nc3ccc(Br)cc3Cl)c(C(=O)NOCCO)cc21 + COc1c(OCCCN2CCOCC2)ccc2c3n(c(=NC(=O)c4cnc(N)nc4)nc12)CCN3
16.4

Here's the next entry for you.
IN: Check the records and state viability, T/C for Cn1cnc2c(F)c(Nc3ccc(Br)cc3Cl)c(C(=O)NOCCO)cc21 + CC(Nc1ccc2c(c1)OCCn1cc(N3C(=O)OCC3C(F)F)nc1-2)C(N)=O
OUT: 25

* * *

- Test system: 883617-216-R-J1-PDC tumor spheroids, viability
- Run description: Anticancer human tumor 883617-216-R-J1-PDC cell line growth inhibition [PI3K];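 further: spheroids exposed to agents for 7 days before the viability read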
- Experimental parameters: second compound 1 µM; first compound 0.0316 µM; hits give low values; spheroids with HUVEC and MSC
Parameter: viability, T/C (%)
Field: numeric (%). Do not append units.

Take a look at these entries with their results.
CC(C)NCC(C(=O)N1CCN(c2ncnc3c2C(C)CC3O)CC1)c1ccc(Cl)cc1 (centres undefined) + CC(Nc1ccc2c(c1)OCCn1cc(N3C(=O)OCC3C(F)F)nc1-2)C(N)=O
14.9
CC1(C)CCC(Nc2ncc(C(F)(F)F)c(-c3c[nH]c4c(P(C)(C)=O)c(C#N)ccc34)n2)CN1 (centres undefined) + Cc1nc(NC(=O)N2CCCC2C(N)=O)sc1-c1ccnc(C(C)(C)C(F)(F)F)c1
18.1
C=CC(=O)N1CCN(c2nc(=O)n(-c3c(C)ccnc3C(C)C)c3nc(-c4c(O)cccc4F)c(F)cc23)C(C)C1 (centres undefined) + Cc1nc(NC(=O)N2CCCC2C(N)=O)sc1-c1ccnc(C(C)(C)C(F)(F)F)c1
14.7

Here's the next entry for you.
IN: Write down measured viability, T/C (883617-216-R-J1-PDC tumor spheroids, viability) for this molecule. Cn1ncnc1[C@H]1c2n[nH]c(=O)c3cc(F)cc(c23)N[C@@H]1c1ccc(F)cc1 + CC(Nc1ccc2c(c1)OCCn1cc(N3C(=O)OCC3C(F)F)nc1-2)C(N)=O
OUT: 13.5

* * *

- Tested on: 883617-216-R-J1-PDC tumor spheroids, viability
- Run description: Anticancer human tumor 883617-216-R-J1-PDC cell line growth inhibition [PI3K]; active = viability on the fitted dose curve at most 10% of control; inactive = the rest;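 further: spheroids exposed to agents for 7 days before the viability read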
- Experimental parameters: second compound 0.1 µM; first compound 1 µM; spheroids with HUVEC and MSC
Would you mind answering with one of these outcomes? 1 (yes) for active, 0 (no) for inactive

These recorded examples may help you get a feel for the data.
CC(Cn1ccc(-c2ccc(C#N)c(Cl)c2)n1)NC(=O)c1cc(C(C)O)[nH]n1 (stereo unspecified) + CC(Nc1ccc2c(c1)OCCn1cc(N3C(=O)OCC3C(F)F)nc1-2)C(N)=O
0 (no)
C=CC(=O)N1CCN(c2nc(=O)n(-c3c(C)ccnc3C(C)C)c3nc(-c4c(O)cccc4F)c(F)cc23)C(C)C1 (stereo unspecified) + CC(Nc1ncnc2nc[nH]c12)c1cc2cccc(Cl)c2c(=O)n1-c1ccccc1
0 (no)
CC(C)NCC(C(=O)N1CCN(c2ncnc3c2C(C)CC3O)CC1)c1ccc(Cl)cc1 (stereo unspecified) + Cc1nc(NC(=O)N2CCCC2C(N)=O)sc1-c1ccnc(C(C)(C)C(F)(F)F)c1
0 (no)
C=CC(=O)N1CCN(c2nc(=O)n(-c3c(C)ccnc3C(C)C)c3nc(-c4c(O)cccc4F)c(F)cc23)C(C)C1 (stereo unspecified) + Cc1nc(NC(=O)N2CCCC2C(N)=O)sc1-c1ccnc(C(C)(C)C(F)(F)F)c1
0 (no)
Cn1ncc(Cl)c1-c1cc(C(=O)NC(CN)Cc2cccc(F)c2)sc1Cl (stereo unspecified) + Cc1nc(NC(=O)N2CCCC2C(N)=O)sc1-c1ccnc(C(C)(C)C(F)(F)F)c1
0 (no)
Cn1nccc1Nc1nccc(-c2ccn(C(CO)c3ccc(Cl)c(F)c3)c(=O)c2)n1 (stereo unspecified) + CC(Nc1ccc2c(c1)OCCn1cc(N3C(=O)OCC3C(F)F)nc1-2)C(N)=O
0 (no)

IN: # fetch the recorded call for CC(C)NCC(C(=O)N1CCN(c2ncnc3c2C(C)CC3O)CC1)c1ccc(Cl)cc1 (stereo unspecified) + CC(Nc1ccc2c(c1)OCCn1cc(N3C(=O)OCC3C(F)F)nc1-2)C(N)=O here
OUT: 0 (no)

IN: # fetch the recorded call for Cn1nccc1Nc1nccc(-c2ccn(C(CO)c3ccc(Cl)c(F)c3)c(=O)c2)n1 (stereo unspecified) + Cc1nc(NC(=O)N2CCCC2C(N)=O)sc1-c1ccnc(C(C)(C)C(F)(F)F)c1 here
OUT: 0 (no)

IN: # fetch the recorded call for CCN1CCN(Cc2ccc(Nc3ncc(F)c(-c4cc(F)c5nc(C)n(C(C)C)c5c4)n3)nc2)CC1 + CC(Nc1ccc2c(c1)OCCn1cc(N3C(=O)OCC3C(F)F)nc1-2)C(N)=O here
OUT: 0 (no)

IN: # fetch the recorded call for CC(C)NCC(C(=O)N1CCN(c2ncnc3c2C(C)CC3O)CC1)c1ccc(Cl)cc1 (stereo unspecified) + COc1c(OCCCN2CCOCC2)ccc2c3n(c(=NC(=O)c4cnc(N)nc4)nc12)CCN3 here
OUT: 1 (yes)

IN: # fetch the recorded call for CC(C)NCC(C(=O)N1CCN(c2ncnc3c2C(C)CC3O)CC1)c1ccc(Cl)cc1 (stereo unspecified) + CC(Nc1ncnc2nc[nH]c12)c1cc2cccc(Cl)c2c(=O)n1-c1ccccc1 here
OUT: 0 (no)
